experiment: yeast display, Sf9 membrane polyspecificity reagent, FACS + sequencing; frameworks hold sequencing errors

sequence code: QVQLVESGGGLVQAGGSLLLSCAASGLTFVANAMGWYSQAPGKERELVARISSSGGSTYYADSVKGRFTISRDNAKNTVYLQMNSLKPEDTAVYYCTARAVRWYYSMNYWGQGTQVTVSS
polyreactivity (PSR sort gate): high polyreactivity

sequence code: QVQLVESGGGLVQAGGSLRLSCAASGFTSEYNAMGWYRQAPGNERELVAAITSGGSTYYADSVEGRFTISRDNAKNTVYLQMNSLKPEDTAVDYCAADYYVWGYLLEYGGQGTQVTVSS
polyreactivity (PSR sort gate): high polyreactivity

sequence code: QVPLVESGGGLVQAGGSLRLSCAASGFIFYANAMGWYRQAPGKERELVAAISWDGGRTYYADSVKGRFTISRDNAKNTVYLQMNSLKPDDTAVYSCNALATDLDYWGQGTQVTVSS
polyreactivity (PSR sort gate): low polyreactivity

sequence code: QVQLVESGGGLVQAGGSLRLICAASGFTFYENAMGWYRQAPGKERELVATISYSGGTTYADSVKGRFTISRDNAKNTVFLQMISLKPEDTAVYYCAADKDGYTYEFDYWGQGTQVTVSS
polyreactivity (PSR sort gate): low polyreactivity

sequence code: QVQLVESGGGLVQAGGSLRLSCAASGNTFSDYAMGWYRQAPGKERELVAAISSSGVRTYYADSVKGRYTISRDNAKNTVYLQINSLKPEDTAVSYCNAVLNQLSYIYPAVGFWGQGTLVTVSS
polyreactivity (PSR sort gate): high polyreactivity
